- SYSTEM: Toll-like receptor 4 (Mus musculus)
- Sequence (Q9QUK6 whole entry): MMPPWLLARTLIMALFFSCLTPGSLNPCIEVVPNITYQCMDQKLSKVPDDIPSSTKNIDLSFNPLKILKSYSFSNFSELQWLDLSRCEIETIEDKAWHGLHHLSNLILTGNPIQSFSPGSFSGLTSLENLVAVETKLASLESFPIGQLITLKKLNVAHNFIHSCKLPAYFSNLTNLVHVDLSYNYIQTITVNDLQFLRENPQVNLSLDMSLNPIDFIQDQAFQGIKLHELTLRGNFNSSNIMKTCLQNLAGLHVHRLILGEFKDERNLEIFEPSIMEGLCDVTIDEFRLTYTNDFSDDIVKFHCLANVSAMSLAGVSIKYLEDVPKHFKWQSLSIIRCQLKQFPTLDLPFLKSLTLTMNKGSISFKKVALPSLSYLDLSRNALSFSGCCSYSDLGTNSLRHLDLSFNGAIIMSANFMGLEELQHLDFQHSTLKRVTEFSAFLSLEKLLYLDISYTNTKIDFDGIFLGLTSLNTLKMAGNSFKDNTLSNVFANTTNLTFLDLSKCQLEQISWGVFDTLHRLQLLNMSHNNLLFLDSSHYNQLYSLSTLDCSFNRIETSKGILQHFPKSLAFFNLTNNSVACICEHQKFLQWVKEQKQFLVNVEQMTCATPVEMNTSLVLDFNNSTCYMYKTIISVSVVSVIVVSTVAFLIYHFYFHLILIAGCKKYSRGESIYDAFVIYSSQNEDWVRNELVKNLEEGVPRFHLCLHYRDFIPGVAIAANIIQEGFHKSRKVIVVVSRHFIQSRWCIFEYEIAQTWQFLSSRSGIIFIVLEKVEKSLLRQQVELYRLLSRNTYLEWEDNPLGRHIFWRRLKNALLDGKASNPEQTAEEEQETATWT
- ASSAY: Agonist activity at mouse TLR4 in human HEK-Blue mTLR4 cells assessed as NF-kappaB activation incubated for 48 hrs by SEAP reporter gene based Quanti-blue assay
- Assay type: cell-based
This listing pairs molecules with measured EC50.
PROPERTY MEASURED: EC50 (nM)

smiles_representation=CCCCCCCCCCC[C@H](CC(=O)NCCO[C@@H]1O[C@H](CO)[C@@H](OP(=O)(O)O)[C@H](OC(=O)C[C@@H](CCCCCCCCCCC)OC(=O)CCCCCCCCC)[C@H]1NC(=O)C[C@@H](CCCCCCCCCCC)OC(=O)CCCCCCCCC)OC(=O)CCCCCCCCC system="Toll-like receptor 4 (Mus musculus)" property_measured=EC50 measured_result=0.43
smiles_representation=CCCCCCCCCCC[C@H](CC(=O)N[C@H]1[C@H](OC[C@H](NC(=O)C[C@@H](CCCCCCCCCCC)OCCCCCCCCCC)C(=O)O)O[C@H](CO)[C@@H](OP(=O)(O)O)[C@H]1NC(=O)C[C@@H](CCCCCCCCCCC)OCCCCCCCCCC)OCCCCCCCCCC.CCN(CC)CC system="Toll-like receptor 4 (Mus musculus)" property_measured=EC50 measured_result=0.15
smiles_representation=CCCCCCCCCCC[C@H](CC(=O)NCCO[C@@H]1O[C@H](CO)[C@@H](OS(=O)(=O)O)[C@@H](NC(=O)C[C@@H](CCCCCCCCCCC)OC(=O)CCCCCCCCC)[C@H]1NC(=O)C[C@@H](CCCCCCCCCCC)OC(=O)CCCCCCCCC)OC(=O)CCCCCCCCC.CCN(CC)CC system="Toll-like receptor 4 (Mus musculus)" property_measured=EC50 measured_result=2.64
smiles_representation=CCCCCCCCCCCCCCCC(=O)O[C@H](CCCCCCCCCCC)CC(=O)N[C@@H]1[C@@H](O)[C@H](O)[C@@H](CO[C@@H]2O[C@H](CO)[C@@H](OP(=O)(O)O)[C@H](OC(=O)C[C@@H](CCCCCCCCCCC)OC(=O)CCCCCCCCCCCCC)[C@H]2NC(=O)C[C@@H](CCCCCCCCCCC)OC(=O)CCCCCCCCCCC)O[C@@H]1O system="Toll-like receptor 4 (Mus musculus)" property_measured=EC50 measured_result=6.54
